- tested system: T1, recombinant human IL4Rα-his protein (in house made) (human, UniProt P24394 26-232, limits assumed)
- T1 construct: also called Human IL4Ra-his
- test method notes: competitive ELISA: coated human IL4Rα-his, blocked ligand biotin human IL4
metric name: IC50 (nM)
Give bare numbers, in nM.

These solved cases illustrate the format of a correct answer.
binder: mouse antibody C2C1A1A1 (antibody, V domains shown, Mouse hybridoma mAb; also called Mouse C2C1A1A1) VH: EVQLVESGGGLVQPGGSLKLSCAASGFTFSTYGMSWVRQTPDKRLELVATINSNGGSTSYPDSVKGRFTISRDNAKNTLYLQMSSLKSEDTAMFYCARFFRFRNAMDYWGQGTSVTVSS VL: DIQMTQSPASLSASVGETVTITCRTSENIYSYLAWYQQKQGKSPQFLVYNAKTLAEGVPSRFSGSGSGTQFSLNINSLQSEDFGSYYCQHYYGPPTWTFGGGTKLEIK
unit tag: nM
endpoint result: 1.89
//
binder: chimeric antibody C2C1A1A1 (antibody, human IgG4 S228P, kappa, V domains shown, Mouse variable domains on human IgG4/kappa; also called Chimeric C2C1A1A1; chC2C1A1A1) VH: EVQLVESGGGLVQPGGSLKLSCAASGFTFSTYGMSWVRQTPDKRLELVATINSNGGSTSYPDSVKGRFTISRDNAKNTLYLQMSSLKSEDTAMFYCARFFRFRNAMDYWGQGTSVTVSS VL: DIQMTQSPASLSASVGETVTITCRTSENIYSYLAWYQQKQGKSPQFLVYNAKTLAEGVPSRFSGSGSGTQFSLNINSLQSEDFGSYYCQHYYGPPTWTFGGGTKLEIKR
unit tag: nM
endpoint result: 3.12
//
binder: mouse antibody B8G11F2B7G5E8 (antibody, V domains shown, Mouse hybridoma mAb; also called Mouse B8G11F2B7G5E8; mAb B8G11F2B7G5E8) VH: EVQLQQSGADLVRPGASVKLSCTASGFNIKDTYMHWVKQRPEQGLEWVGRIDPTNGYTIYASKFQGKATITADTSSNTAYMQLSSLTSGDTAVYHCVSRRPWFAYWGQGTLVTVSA VL: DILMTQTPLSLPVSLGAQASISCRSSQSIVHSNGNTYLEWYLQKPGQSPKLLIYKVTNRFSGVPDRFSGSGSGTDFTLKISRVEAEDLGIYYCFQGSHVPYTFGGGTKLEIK
unit tag: nM
endpoint result: 1.64

Please turn your attention to the following entry.
Item under review: chimeric antibody B8G11F2B7G5E8 (antibody, human IgG4 S228P, kappa, V domains shown, Mouse variable domains on human IgG4/kappa; also called Chimeric B8G11F2B7G5E8; chB8G11F2B7G5E8) VH: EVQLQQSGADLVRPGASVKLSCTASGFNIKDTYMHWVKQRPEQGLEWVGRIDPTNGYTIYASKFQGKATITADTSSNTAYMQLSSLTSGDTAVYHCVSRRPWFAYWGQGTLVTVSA VL: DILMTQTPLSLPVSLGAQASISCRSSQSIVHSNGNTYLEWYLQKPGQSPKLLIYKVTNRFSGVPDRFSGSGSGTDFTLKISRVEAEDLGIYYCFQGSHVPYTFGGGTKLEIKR . Reported IC50?
1.82
